Test system: 328373-195-R-J1-PDC complex spheroids, viability % test/control
Protocol: Anticancer human tumor 328373-195-R-J1-PDC patient-derived head and neck squamous carcinoma cell line growth inhibition [CLK]
Conditions: second compound 3.16 µM; first compound 0.1 µM; stronger effect = lower value
Readout Name: viability, T/C (%)
Give bare numbers, in %.

CC(=O)O[C@H]1C(=O)[C@@]2(C)[C@H]([C@H](OC(=O)c3ccccc3)[C@]3(O)C[C@H](OC(=O)[C@H](O)[C@@H](NC(=O)c4ccccc4)c4ccccc4)C(C)=C1C3(C)C)[C@]1(OC(C)=O)CO[C@@H]1C[C@@H]2O + CN1CCN(c2cc(C(=O)Nc3cc4cc(-c5cnn(C)c5)ccc4cn3)ccn2)CC1 :: 0.11
C=C(F)C(=O)N1CCN(c2nc(OCC3CCCN3C)nc3c2CCN(c2cccc4cccc(Cl)c24)C3)CC1CC#N (stereo not given) + CNC(=O)c1ccc(Nc2nc(OC3CCCC3)c3c(-c4ccc5nc(C)oc5c4)c[nH]c3n2)c(OC)c1 :: 10
COc1ccc([C@@H](O)c2cc(-c3ncnc4cc(N5CCOCC5)ccc34)c(F)cc2Cl)nn1 + CNC(=O)c1ccc(Nc2nc(OC3CCCC3)c3c(-c4ccc5nc(C)oc5c4)c[nH]c3n2)c(OC)c1 :: 9.31
CCc1c2c(nc3ccc(O)cc13)-c1cc3c(c(=O)n1C2)COC(=O)[C@]3(O)CC + CNC(=O)c1ccc(Nc2nc(OC3CCCC3)c3c(-c4ccc5nc(C)oc5c4)c[nH]c3n2)c(OC)c1 :: 0.35
CCN1CCN(Cc2ccc(Nc3ncc(F)c(-c4cc(F)c5nc(C)n(C(C)C)c5c4)n3)nc2)CC1 + CN1CCN(c2cc(C(=O)Nc3cc4cc(-c5cnn(C)c5)ccc4cn3)ccn2)CC1 :: 0.15

Would you be so kind as to report viability, T/C for each listed record?
1. Nc1ccccc1NC(=O)c1ccc(CNC(=O)OCc2cccnc2)cc1 + CN1CCN(c2cc(C(=O)Nc3cc4cc(-c5cnn(C)c5)ccc4cn3)ccn2)CC1
2. CC(CO)NC(=O)c1cc(-c2ccc(Cl)cc2)nn(-c2cnn(C)c2)c1=O (stereo not given) + CN1CCN(c2cc(C(=O)Nc3cc4cc(-c5cnn(C)c5)ccc4cn3)ccn2)CC1
3. C#Cc1c(F)ccc2cc(O)cc(-c3ncc4c(N5CC6CCC(C5)N6)nc(OCC56CCCN5CC(F)C6)nc4c3F)c12 (stereo not given) + CN1CCN(c2cc(C(=O)Nc3cc4cc(-c5cnn(C)c5)ccc4cn3)ccn2)CC1
4. COc1ccc([C@@H](O)c2cc(-c3ncnc4cc(N5CCOCC5)ccc34)c(F)cc2Cl)nn1 + CN1CCN(c2cc(C(=O)Nc3cc4cc(-c5cnn(C)c5)ccc4cn3)ccn2)CC1
5. CC(CO)NC(=O)c1cc(-c2ccc(Cl)cc2)nn(-c2cnn(C)c2)c1=O (stereo not given) + CNC(=O)c1ccc(Nc2nc(OC3CCCC3)c3c(-c4ccc5nc(C)oc5c4)c[nH]c3n2)c(OC)c1
6. CCCS(=O)(=O)Nc1ccc(F)c(C(=O)c2c[nH]c3ncc(-c4ccc(Cl)cc4)cc23)c1F + CNC(=O)c1ccc(Nc2nc(OC3CCCC3)c3c(-c4ccc5nc(C)oc5c4)c[nH]c3n2)c(OC)c1
7. Cn1ncnc1[C@H]1c2n[nH]c(=O)c3cc(F)cc(c23)N[C@@H]1c1ccc(F)cc1 + CN1CCN(c2cc(C(=O)Nc3cc4cc(-c5cnn(C)c5)ccc4cn3)ccn2)CC1

Response:
1. 0.75
2. 1.98
3. 2.27
4. 0.1
5. 10.9
6. 11.3
7. 1.99

Would you be so kind as to report viability, T/C for each listed record?
1. CC(=O)O[C@H]1C(=O)[C@@]2(C)[C@H]([C@H](OC(=O)c3ccccc3)[C@]3(O)C[C@H](OC(=O)[C@H](O)[C@@H](NC(=O)c4ccccc4)c4ccccc4)C(C)=C1C3(C)C)[C@]1(OC(C)=O)CO[C@@H]1C[C@@H]2O + CNC(=O)c1ccc(Nc2nc(OC3CCCC3)c3c(-c4ccc5nc(C)oc5c4)c[nH]c3n2)c(OC)c1
2. CC1COCCN1c1cc(C2(S(C)(=N)=O)CC2)nc(-c2ccnc3[nH]ccc23)n1 (stereo not given) + CN1CCN(c2cc(C(=O)Nc3cc4cc(-c5cnn(C)c5)ccc4cn3)ccn2)CC1
3. COc1cccc2c1C(=O)c1c(O)c3c(c(O)c1C2=O)CC(O)(C(=O)CO)CC3OC1CC(N)C(O)C(C)O1 (stereo not given) + CN1CCN(c2cc(C(=O)Nc3cc4cc(-c5cnn(C)c5)ccc4cn3)ccn2)CC1
4. O=c1[nH]cc(F)c(=O)[nH]1 + CNC(=O)c1ccc(Nc2nc(OC3CCCC3)c3c(-c4ccc5nc(C)oc5c4)c[nH]c3n2)c(OC)c1

Response:
1. 27.2
2. 0.12
3. 4.11
4. 7.15

====

Test system: 328373-195-R-J1-PDC complex spheroids, viability % test/control
Protocol: Anticancer human tumor 328373-195-R-J1-PDC cell line growth inhibition [CLK]; active = viability on the fitted dose curve at most 10% of control; inactive = the rest;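 further: spheroids exposed to the agents for 7 days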
Conditions: second compound 3.16 µM; first compound 0.316 µM
Write down one outcome, taken from active, inactive

Solved entries (count: 8):
CC(CO)NC(=O)c1cc(-c2ccc(Cl)cc2)nn(-c2cnn(C)c2)c1=O (centres undefined) + CNC(=O)c1ccc(Nc2nc(OC3CCCC3)c3c(-c4ccc5nc(C)oc5c4)c[nH]c3n2)c(OC)c1 :: inactive
COc1ccc([C@@H](O)c2cc(-c3ncnc4cc(N5CCOCC5)ccc34)c(F)cc2Cl)nn1 + CN1CCN(c2cc(C(=O)Nc3cc4cc(-c5cnn(C)c5)ccc4cn3)ccn2)CC1 :: active
C=CC(=O)N1CCN(c2nc(=O)n(-c3c(C)ccnc3C(C)C)c3nc(-c4c(O)cccc4F)c(F)cc23)C(C)C1 (centres undefined) + CNC(=O)c1ccc(Nc2nc(OC3CCCC3)c3c(-c4ccc5nc(C)oc5c4)c[nH]c3n2)c(OC)c1 :: inactive
CC1(C)CCC(CN2CCN(c3ccc(C(=O)NS(=O)(=O)c4ccc(NCC5CCOCC5)c([N+](=O)[O-])c4)c(Oc4cnc5[nH]ccc5c4)c3)CC2)=C(c2ccc(Cl)cc2)C1 + CNC(=O)c1ccc(Nc2nc(OC3CCCC3)c3c(-c4ccc5nc(C)oc5c4)c[nH]c3n2)c(OC)c1 :: active
CCCS(=O)(=O)Nc1ccc(F)c(C(=O)c2c[nH]c3ncc(-c4ccc(Cl)cc4)cc23)c1F + CNC(=O)c1ccc(Nc2nc(OC3CCCC3)c3c(-c4ccc5nc(C)oc5c4)c[nH]c3n2)c(OC)c1 :: inactive
CC(Nc1ccc2c(c1)OCCn1cc(N3C(=O)OCC3C(F)F)nc1-2)C(N)=O (centres undefined) + CNC(=O)c1ccc(Nc2nc(OC3CCCC3)c3c(-c4ccc5nc(C)oc5c4)c[nH]c3n2)c(OC)c1 :: inactive
COc1c(OCCCN2CCOCC2)ccc2c3n(c(=NC(=O)c4cnc(N)nc4)nc12)CCN3 + CN1CCN(c2cc(C(=O)Nc3cc4cc(-c5cnn(C)c5)ccc4cn3)ccn2)CC1 :: active
COC1C=CCC(C)C(C)S(=O)(=O)NC(=O)c2ccc3c(c2)N(CC2CCC21)CC1(CCCc2cc(Cl)ccc21)CO3 (centres undefined) + CNC(=O)c1ccc(Nc2nc(OC3CCCC3)c3c(-c4ccc5nc(C)oc5c4)c[nH]c3n2)c(OC)c1 :: active

Request: Dear all, I need the recorded test outcome for Nc1ccccc1NC(=O)c1ccc(CNC(=O)OCc2cccnc2)cc1 + CN1CCN(c2cc(C(=O)Nc3cc4cc(-c5cnn(C)c5)ccc4cn3)ccn2)CC1 , thank you.
Response: active

====

System: 328373-195-R-J1-PDC complex spheroids, viability % test/control
Protocol: Anticancer human tumor 328373-195-R-J1-PDC cell line growth inhibition [CLK]; active = viability on the fitted dose curve at most 10% of control; inactive = the rest;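 further: spheroids exposed to the agents for 7 days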
Conditions: second compound 0.1 µM; first compound 0.1 µM
Write down one outcome, taken from label 1 (active), label 0 (inactive)

Solved entries (count: 2):
Nc1ccn(C2OC(CO)C(O)C2(F)F)c(=O)n1 (stereo not drawn) + CN1CCN(c2cc(C(=O)Nc3cc4cc(-c5cnn(C)c5)ccc4cn3)ccn2)CC1 :: label 1
C=CC(=O)N1CCN(c2nc(=O)n(-c3c(C)ccnc3C(C)C)c3nc(-c4c(O)cccc4F)c(F)cc23)C(C)C1 (stereo not drawn) + CNC(=O)c1ccc(Nc2nc(OC3CCCC3)c3c(-c4ccc5nc(C)oc5c4)c[nH]c3n2)c(OC)c1 :: label 0

Request: Dear all, I need the recorded test outcome for CC(CO)NC(=O)c1cc(-c2ccc(Cl)cc2)nn(-c2cnn(C)c2)c1=O (stereo not drawn) + CN1CCN(c2cc(C(=O)Nc3cc4cc(-c5cnn(C)c5)ccc4cn3)ccn2)CC1 , thank you.
Response: label 0

====

Consider the following compounds; for each one, report its viability, T/C.
System: 328373-195-R-J1-PDC complex spheroids, viability % test/control
Protocol: Anticancer human tumor 328373-195-R-J1-PDC cell line growth inhibition [CLK];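 further: spheroids exposed to the agents for 7 days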
Conditions: second compound 0.316 µM; first compound 1 µM; stronger effect = lower value

Would you please look over these solved cases?
CCCS(=O)(=O)Nc1ccc(F)c(C(=O)c2c[nH]c3ncc(-c4ccc(Cl)cc4)cc23)c1F + CNC(=O)c1ccc(Nc2nc(OC3CCCC3)c3c(-c4ccc5nc(C)oc5c4)c[nH]c3n2)c(OC)c1 :: 12.2%
O=c1[nH]cc(F)c(=O)[nH]1 + CN1CCN(c2cc(C(=O)Nc3cc4cc(-c5cnn(C)c5)ccc4cn3)ccn2)CC1 :: 7.98%
CC1COCCN1c1cc(C2(S(C)(=N)=O)CC2)nc(-c2ccnc3[nH]ccc23)n1 (stereo unspecified) + CN1CCN(c2cc(C(=O)Nc3cc4cc(-c5cnn(C)c5)ccc4cn3)ccn2)CC1 :: 14.7%
COc1cccc2c1C(=O)c1c(O)c3c(c(O)c1C2=O)CC(O)(C(=O)CO)CC3OC1CC(N)C(O)C(C)O1 (stereo unspecified) + CN1CCN(c2cc(C(=O)Nc3cc4cc(-c5cnn(C)c5)ccc4cn3)ccn2)CC1 :: 1.11%
COc1ccc([C@@H](O)c2cc(-c3ncnc4cc(N5CCOCC5)ccc34)c(F)cc2Cl)nn1 + CN1CCN(c2cc(C(=O)Nc3cc4cc(-c5cnn(C)c5)ccc4cn3)ccn2)CC1 :: 17.7%

Moving on to another compound below.
Request: Please give the measured viability, T/C for this compound: O=c1[nH]cc(F)c(=O)[nH]1 + CNC(=O)c1ccc(Nc2nc(OC3CCCC3)c3c(-c4ccc5nc(C)oc5c4)c[nH]c3n2)c(OC)c1
Response: 4.15%
